- target or test system: T1, SurA-WT (E. coli, UniProt P0ABZ6 21-428)
- T1 chain: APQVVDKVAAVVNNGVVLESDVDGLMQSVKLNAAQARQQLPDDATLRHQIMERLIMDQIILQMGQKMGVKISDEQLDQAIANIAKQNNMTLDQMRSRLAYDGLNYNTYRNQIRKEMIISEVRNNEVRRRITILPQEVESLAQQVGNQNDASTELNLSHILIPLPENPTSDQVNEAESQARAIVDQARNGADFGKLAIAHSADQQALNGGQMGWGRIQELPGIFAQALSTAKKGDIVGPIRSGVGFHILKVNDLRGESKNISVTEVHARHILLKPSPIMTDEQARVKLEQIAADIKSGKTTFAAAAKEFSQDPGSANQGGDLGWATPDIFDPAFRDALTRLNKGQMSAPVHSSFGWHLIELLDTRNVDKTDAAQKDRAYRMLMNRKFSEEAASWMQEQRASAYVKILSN
- test protocol: ITC

[
  {
    "binder": "WEYIPNV [WEYIPNV peptide]",
    "Kd": "5.4 µM"
  }
]
